These measurements were taken from ChEMBL document CHEMBL4351003.

Assay: Cytotoxicity against human HEK293 cells transfected with human TLR7/8 assessed as reduction in cell viability incubated for 24 hrs by MTS assay
Assay type: cell-based
Conditions: read-out: MNCC
Parameter Measured: MNTC at 24 h

>>> result("CCCCn1cnc2c(=O)oc3ccccc3c21")
"≥ 250 µM"

Please fill in: MNTC at 24 h reported for "CCn1cnc2c(=O)oc3ccc(F)cc3c21" = ≥ 250 µM

Quick note, MNTC at 24 h for "CC(C)n1cnc2c(=O)oc3ccccc3c21" landed at ≥ 250 µM

* * *

Assay: Cytotoxicity against human HEK293 cells transfected with human TLR7/8 assessed as reduction in cell viability incubated for 24 hrs by MTS assay
Type: cell-based
Conditions: read-out: MNCC
# reported MNTC at 24 h; entries follow

>>> result("C=CCn1cnc2c(=O)oc3ccccc3c21")
"≥ 250 µM"
>>> result("COCCn1cnc2c(=O)oc3ccccc3c21")
"≥ 250 µM"
>>> result("COc1ccc2c(c1)oc(=O)c1ncn(CC(C)C)c12")
"≥ 250 µM"

Proceeding to the next compound to report its MNTC at 24 h.
The recorded MNTC at 24 h for "CC(C)CNc1nc(C(F)(F)F)nc2ccccc12" is 7.8 to 250 µM
